Reference source: ChEMBL document CHEMBL1152804

The following compounds are shown together with reported pKa values.
- Method summary: Dissociation constant, pKa by capillary electrophoresis
- Format: physicochemical
Reply with the value as a number alone.

Example entries begin here.
> print(dat)
                                   compound  observed
1  CCCN1C[C@H](CSC)C[C@@H]2c3cccc4[nH]cc(c34)C[C@H]21 [PERGOLIDE]      8.78
2           CNCCCC12CCC(c3ccccc31)c1ccccc12      10.6
3  OCCN1CCN(CCCN2c3ccccc3Sc3ccc(Cl)cc32)CC1      8.04

Field: next compound
Request: // query pKa value for entry CN1CCCCC1CCN1c2ccccc2Sc2ccc([S+](C)[O-])cc21 (centres undefined)
Response: 9.61

====

- Method summary: Lipophilicity, log P by microemulsion electrokinetic chromatography
- Type: physicochemical
- Condition description: read-out: logP
The following compounds are shown together with reported logP values.
Reply with the value as a number alone.

Example entries begin here.
> print(dat)
                                   compound  observed
1  CC(C)NCC(O)COc1cccc2[nH]ccc12 (configuration not stated) [PINDOLOL]      1.71
2  CCCC(C)(COC(N)=O)COC(=O)NC(C)C (configuration not stated) [CARISOPRODOL]       2.4
3  CCCN1C[C@H](CSC)C[C@@H]2c3cccc4[nH]cc(c34)C[C@H]21 [PERGOLIDE]      4.22

Request: // query logP value for entry OCCN1CCN(CCCN2c3ccccc3Sc3ccc(Cl)cc32)CC1 [PERPHENAZINE]
Response: 3.83

Request: // query logP value for entry COC(=O)C(c1ccccc1)C1CCCCN1 (configuration not stated) [METHYLPHENIDATE]
Response: 2.67

Request: // query logP value for entry Cc1ncc2n1-c1ccc(Cl)cc1C(c1ccccc1F)=NC2 [MIDAZOLAM]
Response: 3.65

Request: // query logP value for entry CN1C(C(=O)Nc2ccccn2)=C(O)c2ccccc2S1(=O)=O [PIROXICAM]
Response: 1.45

====

- Method summary: Lipophilicity, log P of the compound
- Assay type: physicochemical
- Condition description: octanol/water; read-out: logP
Output schema: class label derived from logP. Mapping: one: < 2; two: ≥ 2 and < 3; three: ≥ 3

> print(dat)
                  molecule  answer.label
1  Clc1cccc(Cl)c1N=C1NCCN1           one

Request: Which category fits this record: COc1ccc(CN(CCN(C)C)c2ccccn2)cc1
Response: three

Request: Which category fits this record: CNC(=C[N+](=O)[O-])NCCSCc1ccc(CN(C)C)o1
Response: one

Request: Which category fits this record: CNCCC=C1c2ccccc2CCc2ccccc21
Response: three

Request: Which category fits this record: COC(=O)Nc1nc2ccc(C(=O)c3ccccc3)cc2[nH]1
Response: two

Request: Which category fits this record: CN(C)CCC=C1c2ccccc2COc2ccccc21 [DOXEPIN]
Response: three

Request: Which category fits this record: CN1CCC[C@H]1c1cccnc1
Response: one

Request: Which category fits this record: C[C@]12C[C@H](O)[C@H]3[C@@H](CCC4=CC(=O)CC[C@@]43C)[C@@H]1CC[C@@H]2C(=O)CO
Response: two

Request: Which category fits this record: NC(=O)N1c2ccccc2C=Cc2ccccc21 [CARBAMAZEPINE]
Response: two

Request: Which category fits this record: O=C(CCCN1CCC(O)(c2ccc(Cl)cc2)CC1)c1ccc(F)cc1
Response: three

Request: Which category fits this record: CCCCNc1ccc(C(=O)OCCN(C)C)cc1
Response: three

Request: Which category fits this record: CN(C)CCCN1c2ccccc2Sc2ccc(Cl)cc21
Response: three

Request: Which category fits this record: CC(NC(C)(C)C)C(=O)c1cccc(Cl)c1 (configuration not stated)
Response: three

Request: Which category fits this record: CCN(CC)CCOC(=O)c1ccc(N)cc1
Response: two

Request: Which category fits this record: CCOC(=O)c1ncn2c1CN(C)C(=O)c1cc(F)ccc1-2
Response: one

Request: Which category fits this record: CCOC(=O)c1ccc(N)cc1
Response: one

Request: Which category fits this record: CN1CCN(C2=Nc3cc(Cl)ccc3Nc3ccccc32)CC1
Response: three

Request: Which category fits this record: CN1C(C(=O)Nc2ccccn2)=C(O)c2ccccc2S1(=O)=O
Response: one

Request: Which category fits this record: C[C@]12CCC(=O)C=C1CC[C@@H]1[C@@H]2[C@@H](O)C[C@@]2(C)[C@H]1CC[C@]2(O)C(=O)CO [HYDROCORTISONE]
Response: one
